Reference source for all entries: patent US4257941A

# Tested on: Galium aparine
# assay_procedure: Herbicidal action (Example 25)
# Assay type: in vivo
# conditions_used: pre-emergence, preemergence, 4.0 kg/ha, read-out: percentage damage
value_kind: pest or weed control at 4000 g/ha (%)
Hi! Could you send only the number? It should be in %, unit omitted.

Enquiry: Given the compound CN(C)C(=O)Nc1ccc(Oc2ccccc2)cc1 [drawing 427] , what is its reported pest or weed control at 4000 g/ha?
Return: 80

Enquiry: Given the compound c1ccc(N2N=NC3C4CC(C5N=NC45)C32)cc1 (stereo not shown) [drawing 431] , what is its reported pest or weed control at 4000 g/ha?
Return: 100

Enquiry: Given the compound c1csc(N2N=NC3C4CC(C5N=NC45)C32)n1 (stereo not shown) [drawing 432] , what is its reported pest or weed control at 4000 g/ha?
Return: 98

Enquiry: Given the compound CC(C)OC(=O)Nc1cccc(Cl)c1 [drawing 426] , what is its reported pest or weed control at 4000 g/ha?
Return: 80

----------
I'd appreciate it if you could supply percentage damage values for the items below.
# Test system: Sorghum halepense
# assay_procedure: Herbicidal action (Example 25)
# Type: in vivo
# conditions_used: preemergence, 2.0 kg/ha
# Procedure: Paraffined paper cups having a volume of 170 cm^3 were filled with a sandy loam, and the seeds of the test plants sown therein, separated by species. (The species are also listed below.) In the first group, treatment was effected immediately after sowing and before germination of the seeds (preemergence treatment=soil treatment). […] After 2 to 6 weeks the action was assessed visually on a 0 to 100 scale, 0 denoting no damage and 100 denoting plants not germinated or completely destroyed.
Hi! Could you send only the number? It should be in percentage damage, unit omitted.

Enquiry: percentage damage of c1ccc(N2N=NC3C4CC(C5N=NC45)C32)cc1 (centres unmarked) [drawing 415] on Sorghum halepense?
Return: 75

Enquiry: percentage damage of Cc1ccc(N2N=NC3C4CC(C5N=NC45)C32)cc1 (centres unmarked) [drawing 418] on Sorghum halepense?
Return: 55

Enquiry: percentage damage of c1ccc(CN2N=NC3C4CC(C5N=NC45)C32)cc1 (centres unmarked) [drawing 417] on Sorghum halepense?
Return: 90

Enquiry: percentage damage of c1ccc(N2C3C4CC(C5N=NC45)C32)cc1 (centres unmarked) [drawing 416] on Sorghum halepense?
Return: 74

Enquiry: percentage damage of O=S(=O)(c1ccccc1)N1C2C3CC(C4N=NC34)C21 (centres unmarked) [drawing 419] on Sorghum halepense?
Return: 53

----------
# System: Solanum nigrum
# assay_procedure: Herbicidal action (Example 25)
# Format: in vivo
# conditions_used: preemergence, 8.0 kg/ha
I'd appreciate it if you could supply percentage damage values for the items below.
Hi! Could you send only the number? It should be in percentage damage, unit omitted.

Enquiry: Given the compound CC(C)OC(=O)Nc1cccc(Cl)c1 [drawing 426] , what is its reported percentage damage?
Return: 90

Enquiry: Given the compound c1csc(N2N=NC3C4CC(C5N=NC45)C32)n1 (centres unmarked) [drawing 432] , what is its reported percentage damage?
Return: 95

Enquiry: Given the compound C=CCN(CC=C)C(=O)CCl [drawing 428] , what is its reported percentage damage?
Return: 25

Enquiry: Given the compound c1ccc(N2N=NC3C4CC(C5N=NC45)C32)cc1 (centres unmarked) [drawing 431] , what is its reported percentage damage?
Return: 95

Enquiry: Given the compound CN(C)C(=O)Nc1ccc(Oc2ccccc2)cc1 [drawing 427] , what is its reported percentage damage?
Return: 90

----------
# Tested on: Cynodon dactylon
# assay_procedure: Growth-regulating action, postemergence, greenhouse (Example 35, Table 1)
# Format: in vivo
# conditions_used: 0.5 kg/ha
value_kind: Growth height (cm)
Hi! Could you send only the number? It should be in cm, unit omitted.

Enquiry: Given the compound CN(C)NC(=O)CCC(=O)O [drawing 437, reference compound] , what is its reported Growth height?
Return: 12

Enquiry: Given the compound c1csc(N2C3C4CC(C5N=NC45)C32)n1 (stereo not drawn) , what is its reported Growth height?
Return: 8

Enquiry: Given the compound Clc1ccc(N2C3C4CC(C5N=NC45)C32)cc1Cl (stereo not drawn) , what is its reported Growth height?
Return: 7

Enquiry: Given the compound C[N+](C)(C)CCCl [[ClCH2CH2N(CH3⊕)3]Cl⊖, reference compound] , what is its reported Growth height?
Return: 9

Enquiry: Given the compound FC(F)(F)c1cccc(N2C3C4CC(C5N=NC45)C32)c1 (stereo not drawn) [drawing 434] , what is its reported Growth height?
Return: 4

Enquiry: Given the compound c1cc2sncc2cc1N1C2C3CC(C4N=NC34)C21 (stereo not drawn) , what is its reported Growth height?
Return: 4

----------
I'd appreciate it if you could supply pest or weed control at 2000 g/ha values for the items below.
# System: Poa annua
# assay_procedure: Herbicidal action (Example 25)
# Format: in vivo
# conditions_used: Poa annua, post-emergence, postemergence, 2.0 kg/ha; read-out: percentage damage
Hi! Could you send only the number? It should be in %, unit omitted.

Enquiry: Given the molecule CC(C)OC(=O)Nc1cccc(Cl)c1 [drawing 426] , what is its reported pest or weed control at 2000 g/ha?
Return: 30

Enquiry: Given the molecule c1csc(N2N=NC3C4CC(C5N=NC45)C32)n1 (centres unmarked) [drawing 432] , what is its reported pest or weed control at 2000 g/ha?
Return: 38

Enquiry: Given the molecule c1ccc(N2N=NC3C4CC(C5N=NC45)C32)cc1 (centres unmarked) [drawing 431] , what is its reported pest or weed control at 2000 g/ha?
Return: 35

Enquiry: Given the molecule C=CCN(CC=C)C(=O)CCl [drawing 428] , what is its reported pest or weed control at 2000 g/ha?
Return: 35

Enquiry: Given the molecule CN(C)C(=O)Nc1ccc(Oc2ccccc2)cc1 [drawing 427] , what is its reported pest or weed control at 2000 g/ha?
Return: 30

----------
I'd appreciate it if you could supply Third cutting, green weight relative values for the items below.
# System: lawns
# assay_procedure: Long-term action on lawns (Example 14)
# Type: in vivo
# conditions_used: 0.5 kg/ha; control 100
Enter a number only.

Enquiry: Given the molecule Brc1ccc(N2N=NC3C4CC(C5N=NC45)C32)cc1 (stereo not drawn) [drawing 380] , what is its reported Third cutting, green weight relative?
Return: 108.6

Enquiry: Given the molecule Fc1ccc(N2N=NC3C4CC(C5N=NC45)C32)cc1 (stereo not drawn) , what is its reported Third cutting, green weight relative?
Return: 96.1

Enquiry: Given the molecule c1cc2sncc2cc1N1N=NC2C3CC(C4N=NC34)C21 (stereo not drawn) [drawing 382] , what is its reported Third cutting, green weight relative?
Return: 102.0

Enquiry: Given the molecule Cc1ccccc1N1N=NC2C3CC(C4N=NC34)C21 (stereo not drawn) , what is its reported Third cutting, green weight relative?
Return: 108.6

Enquiry: Given the molecule Clc1ccc(N2N=NC3C4CC(C5NNC45)C32)cc1 (stereo not drawn) [drawing 381] , what is its reported Third cutting, green weight relative?
Return: 113.2

Enquiry: Given the molecule CC(=O)Nc1ccc(C)c(NS(=O)(=O)C(F)(F)F)c1 [S, reference compound] , what is its reported Third cutting, green weight relative?
Return: 102.6

----------
# System: lawns
# assay_procedure: Long-term action on lawns (Example 14)
# Type: in vivo
# conditions_used: 4.0 kg/ha
Hi! Could you tag entries with Second cutting, growth height below 7 cm as Criterion met, and those at or above as Criterion not met? Much appreciated.

Enquiry: Say whether its Second cutting, growth height is strictly beneath 7 cm. Entry: Clc1ccc(N2N=NC3C4CC(C5NNC45)C32)cc1 (stereo not drawn) [drawing 381]
Return: Criterion met

Enquiry: Say whether its Second cutting, growth height is strictly beneath 7 cm. Entry: CC(=O)Nc1ccc(C)c(NS(=O)(=O)C(F)(F)F)c1 [S, reference compound]
Return: Criterion met

Enquiry: Say whether its Second cutting, growth height is strictly beneath 7 cm. Entry: Fc1ccc(N2N=NC3C4CC(C5N=NC45)C32)cc1 (stereo not drawn)
Return: Criterion met

Enquiry: Say whether its Second cutting, growth height is strictly beneath 7 cm. Entry: Cc1ccccc1N1N=NC2C3CC(C4N=NC34)C21 (stereo not drawn)
Return: Criterion not met

----------
# Test system: lawns
# assay_procedure: Long-term action on lawns (Example 14)
# Type: in vivo
# conditions_used: 2.0 kg/ha; control 100
I'd appreciate it if you could supply First cutting, green weight relative values for the items below.
Enter a number only.

Enquiry: Given the compound Brc1ccc(N2N=NC3C4CC(C5N=NC45)C32)cc1 (centres unmarked) [drawing 380] , what is its reported First cutting, green weight relative?
Return: 62.3

Enquiry: Given the compound Fc1ccc(N2N=NC3C4CC(C5N=NC45)C32)cc1 (centres unmarked) , what is its reported First cutting, green weight relative?
Return: 27.8

Enquiry: Given the compound CC(=O)Nc1ccc(C)c(NS(=O)(=O)C(F)(F)F)c1 [S, reference compound] , what is its reported First cutting, green weight relative?
Return: 35.7

Enquiry: Given the compound Cc1ccccc1N1N=NC2C3CC(C4N=NC34)C21 (centres unmarked) , what is its reported First cutting, green weight relative?
Return: 56.7

Enquiry: Given the compound c1cc2sncc2cc1N1N=NC2C3CC(C4N=NC34)C21 (centres unmarked) [drawing 382] , what is its reported First cutting, green weight relative?
Return: 57.5
